target: Prostaglandin E2 receptor EP2 subtype (Homo sapiens, UniProt P43116); assay: Binding affinity to human EP2 receptor
Sequence (P43116 whole entry): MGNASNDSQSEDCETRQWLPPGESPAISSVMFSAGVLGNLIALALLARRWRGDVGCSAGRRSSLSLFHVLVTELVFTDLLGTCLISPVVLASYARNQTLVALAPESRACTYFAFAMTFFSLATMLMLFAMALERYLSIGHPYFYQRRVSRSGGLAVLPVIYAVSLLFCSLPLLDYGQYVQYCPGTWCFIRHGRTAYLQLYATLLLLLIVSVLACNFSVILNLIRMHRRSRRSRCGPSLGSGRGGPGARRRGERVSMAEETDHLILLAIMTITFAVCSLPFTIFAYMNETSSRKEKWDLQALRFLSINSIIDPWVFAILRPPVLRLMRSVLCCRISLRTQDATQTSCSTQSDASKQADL
readout_name: Ki

Solved cases (5 shown):
# smiles_data, study_target, Ki
data = [
    ("CCCCC[C@H](O)/C=C/[C@H]1CCC(=O)N1CCc1ccc(C(=O)O)s1", "Prostaglandin E2 receptor EP2 subtype (Homo sapiens, UniProt P43116)", "3.7 µM (antagonist)"),
    ("CCCCC[C@H](O)CC[C@H]1CCC(=O)N1CCc1ccc(C(=O)O)cc1", "Prostaglandin E2 receptor EP2 subtype (Homo sapiens, UniProt P43116)", "0.035 µM (antagonist)"),
    ("COCc1cccc(C[C@H](O)/C=C/[C@H]2CCC(=O)N2CCc2ccc(C(=O)O)cc2)c1", "Prostaglandin E2 receptor EP2 subtype (Homo sapiens, UniProt P43116)", "2.5 µM (antagonist)"),
    ("O=C(O)c1ccc(CCN2C(=O)CC[C@@H]2CC[C@@H](O)CCC2CCC2)cc1", "Prostaglandin E2 receptor EP2 subtype (Homo sapiens, UniProt P43116)", "0.22 µM (antagonist)"),
    ("CCCCC[C@H](O)/C=C/[C@H]1CCC(=O)N1CCSCCCC(=O)O", "Prostaglandin E2 receptor EP2 subtype (Homo sapiens, UniProt P43116)", "4.7 µM (antagonist)"),
]

Form: compound = O=C(O)c1ccc(CCN2C(=O)CC[C@@H]2/C=C/[C@@H](O)CCC2CCC2)cc1 ; Ki = 0.075 µM (antagonist)

###

molecules and their reported Ki
molecular target: Prostaglandin E2 receptor EP4 subtype (Homo sapiens, UniProt P35408); experiment: Binding affinity to human EP4 receptor
Sequence (P35408 whole entry): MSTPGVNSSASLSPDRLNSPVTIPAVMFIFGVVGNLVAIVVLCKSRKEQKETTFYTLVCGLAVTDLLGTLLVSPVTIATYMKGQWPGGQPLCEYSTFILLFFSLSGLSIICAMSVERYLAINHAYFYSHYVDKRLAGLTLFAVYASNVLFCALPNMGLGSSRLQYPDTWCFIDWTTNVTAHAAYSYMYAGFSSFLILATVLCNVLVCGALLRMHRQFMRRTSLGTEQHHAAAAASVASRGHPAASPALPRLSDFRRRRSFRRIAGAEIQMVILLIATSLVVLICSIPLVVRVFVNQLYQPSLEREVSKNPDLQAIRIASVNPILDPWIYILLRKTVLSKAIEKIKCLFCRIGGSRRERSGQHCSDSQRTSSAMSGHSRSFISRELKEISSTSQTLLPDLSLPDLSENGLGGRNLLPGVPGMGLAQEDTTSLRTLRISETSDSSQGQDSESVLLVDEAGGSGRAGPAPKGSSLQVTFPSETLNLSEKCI

Solved cases (6 shown):
# smiles_data, readout_name, observed_value
data = [
    ("COCc1cccc(C[C@H](O)/C=C/[C@H]2CCC(=O)N2CCc2ccc(C(=O)O)cc2)c1", "Ki", "0.7 nM (antagonist)"),
    ("O=C(O)c1ccc(CCN2C(=O)CC[C@@H]2CC[C@@H](O)CCC2CCC2)cc1", "Ki", "18 nM (antagonist)"),
    ("O=C(O)c1ccc(CCN2C(=O)CC[C@@H]2/C=C/[C@@H](O)CCC2CCC2)cc1", "Ki", "1 nM (antagonist)"),
    ("CCCCC[C@H](O)CC[C@H]1CCC(=O)N1CCc1ccc(C(=O)O)cc1", "Ki", "17 nM (antagonist)"),
    ("CCCCC[C@H](O)/C=C/[C@H]1CCC(=O)N1CCc1ccc(C(=O)O)cc1", "Ki", "2.9 nM (antagonist)"),
    ("CCCCC[C@H](O)/C=C/[C@H]1CCC(=O)N1CCSCCCC(=O)O", "Ki", "3.8 nM (antagonist)"),
]

Form: molecule = CCCCC[C@H](O)/C=C/[C@H]1CCC(=O)N1CCc1ccc(C(=O)O)s1 ; Ki = 6.9 nM (antagonist)

###

Target: Prostaglandin E2 receptor EP1 subtype (Homo sapiens)
Sequence (P34995 whole entry): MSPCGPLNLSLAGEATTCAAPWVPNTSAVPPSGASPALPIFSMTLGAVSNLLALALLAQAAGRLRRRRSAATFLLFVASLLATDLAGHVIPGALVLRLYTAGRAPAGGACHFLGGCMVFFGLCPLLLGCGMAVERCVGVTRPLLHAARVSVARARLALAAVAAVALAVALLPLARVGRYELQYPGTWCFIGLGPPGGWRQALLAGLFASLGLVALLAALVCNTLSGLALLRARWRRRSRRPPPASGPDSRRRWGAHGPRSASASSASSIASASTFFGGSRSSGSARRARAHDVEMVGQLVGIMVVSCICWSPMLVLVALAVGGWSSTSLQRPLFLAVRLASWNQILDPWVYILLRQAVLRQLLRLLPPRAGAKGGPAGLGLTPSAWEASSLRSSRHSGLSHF
readout_name: Ki (µM)
Just the number in µM, nothing appended.

Form: molecule = Cc1cc(Cl)ccc1-c1cccc([C@H](O)CC[C@H]2CCC(=O)N2CCc2ccc(C(=O)O)cc2)c1 ; Ki = 18

###

test: Clearance in Wistar Han rat at 1 mg/kg, iv; type: ADME, organism-based; design: dose 1 mg/kg, route intravenous; details: in vivo
compounds and their reported clearance
Just the number in L/h/kg, nothing appended.

Solved cases (3 shown):
# smiles_data, observed_value
data = [
    ("CCCCC[C@H](O)/C=C/[C@H]1CCC(=O)N1CCc1ccc(C(=O)O)cc1", 2.5),
    ("CCCCC[C@H](O)/C=C/[C@H]1CCC(=O)N1CCSCCCC(=O)O", 0.63),
    ("CCCCC[C@H](O)/C=C/[C@H]1CCC(=O)N1CCCCCCC(=O)O", 5.5),
]

Form: compound = CCCCC[C@H](O)CC[C@H]1CCC(=O)N1CCc1ccc(C(=O)O)cc1 ; clearance = 3

###

molecular target: Prostaglandin E2 receptor EP4 subtype (Homo sapiens); assay: Functional activity at human EP4 receptor
readout_name: EC50

# smiles_data, observed_value
rows = [
    ("CCCCC[C@H](O)/C=C/[C@H]1CCC(=O)N1CCSCCCC(=O)O", "0.017 µM (agonist)"),
    ("O=C(O)c1ccc(CCN2C(=O)CC[C@@H]2CC[C@@H](O)CCC2CCC2)cc1", "0.15 µM (agonist)"),
]

Record COCc1cccc(C[C@H](O)/C=C/[C@H]2CCC(=O)N2CCc2ccc(C(=O)O)cc2)c1 ; system Prostaglandin E2 receptor EP4 subtype (Homo sapiens); EC50 = 0.0059 µM (agonist)

Where these numbers come from: ChEMBL document CHEMBL1149243
